Data origin: patent US11332463B2

Target: human α7 nicotinic acetylcholine receptor (HEK cell line stably expressing human RIC-3 and human α7) (Homo sapiens, UniProt P36544)
Construct: host or cells: HEK cell line (PrecisION hnAChR α7/RIC-3)
Sequence (P36544 23-502): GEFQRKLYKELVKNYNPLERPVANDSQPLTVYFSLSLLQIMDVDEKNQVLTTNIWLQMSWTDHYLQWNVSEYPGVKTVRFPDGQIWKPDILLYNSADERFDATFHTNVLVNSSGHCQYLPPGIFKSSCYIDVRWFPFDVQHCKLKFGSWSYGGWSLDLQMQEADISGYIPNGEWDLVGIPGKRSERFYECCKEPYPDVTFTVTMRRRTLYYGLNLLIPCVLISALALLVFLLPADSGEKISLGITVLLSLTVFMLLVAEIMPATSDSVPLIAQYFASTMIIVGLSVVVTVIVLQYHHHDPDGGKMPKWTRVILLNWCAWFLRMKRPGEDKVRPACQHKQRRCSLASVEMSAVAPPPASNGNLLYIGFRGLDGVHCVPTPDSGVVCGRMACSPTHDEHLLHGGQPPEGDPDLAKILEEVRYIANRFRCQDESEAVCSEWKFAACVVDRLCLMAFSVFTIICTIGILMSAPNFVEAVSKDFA
Experiment: Automated patch-clamp electrophysiology functional assay (Assay A), IonFlux HT, whole-cell population patch
Type: cell-based
Conditions: HEK cells expressing human α7/RIC-3; test compound with or without 40 μM acetylcholine; holding potential −60 mV; room temperature; read-out: α7 nAChR Potency
Description: The α7 nAChR positive allosteric modulator (PAM) activity of the present compounds may be tested using assays known in the art. […] The assay was performed using the IonFlux HT in a whole-cell, population patch configuration. See Golden et al. Assay Drug Dev. Technol. […] The compounds were assessed for their ability to modulate the function of the human 7 nAChR stably expressed in a HEK cell line both in the presence, and in the absence of the natural 7 agonist acetylcholine. […]
pEC50: −log10 of the molar value.
Measured attribute: pEC50

# annotated cases, reported pEC50 shown
NS(=O)(=O)N1CCC2(CC1)C[C@H]2c1noc(-c2ccccc2-n2cccc2)n1 = 5.30 to 6.30
NS(=O)(=O)N1CCC2(CC2c2nc(-c3cccc(OC(F)F)c3)no2)C(F)C1 (single isomer, unassigned) [Example I1] = 5.30 to 6.30
Cn1nc2c(c1-c1nc([C@@H]3C(F)(F)C34CCN(S(N)(=O)=O)CC4)no1)CCCC2 = 6.30 to 7.00
NS(=O)(=O)N1CCC2(CC1)C[C@H]2c1noc(-c2c(F)cccc2C(F)(F)F)n1 = 5.30 to 6.30

Input line: Report pEC50 for NS(=O)(=O)N1CCC2(CC1)C[C@H]2c1noc(-c2ccc(OCC(F)(F)F)nc2)n1 please.
Output line: 5.30 to 6.30

Input line: Report pEC50 for NS(=O)(=O)N1CCC2(CC1)C[C@H]2c1noc(-c2ccccc2OC(F)F)n1 please.
Output line: 6.30 to 7.00

Input line: Report pEC50 for Cc1ccc(F)cc1-c1nnc([C@@H]2CC23CCN(S(N)(=O)=O)CC3)o1 please.
Output line: 6.30 to 7.00

Input line: Report pEC50 for Cn1nc2c(c1-c1nc([C@@H]3CC34CCN(S(N)(=O)=O)CC4)no1)CCCC2 please.
Output line: 6.30 to 7.00

* * *

Biological target: human α7 nicotinic acetylcholine receptor (HEK cell line stably expressing human RIC-3 and human α7) (Homo sapiens, UniProt P36544)
Construct: host or cells: HEK cell line (PrecisION hnAChR α7/RIC-3)
Test: Automated patch-clamp electrophysiology functional assay (Assay A), IonFlux HT, whole-cell population patch
Type: cell-based
Conditions: HEK cells expressing human α7/RIC-3; test compound with or without 40 μM acetylcholine; holding potential −60 mV; room temperature; read-out: α7 nAChR Potency
pEC50: −log10 of the molar value.
Measured attribute: pEC50

# annotated cases, reported pEC50 shown
NS(=O)(=O)N1CCC2(CC1)C[C@H]2c1noc(C2CC(c3ccccc3)C2)n1 (mixture of isomers) = 5.30 to 6.30
NS(=O)(=O)N1CCC2(CC1)C(c1nsc(N3CCCCC3)n1)C2(F)F (racemic) = 5.30 to 6.30
Cc1ccc(C)c(-c2nc(C3C(F)(F)C34C3CCC4CN(S(N)(=O)=O)C3)no2)c1 (single isomer, unassigned) = > 7.00
Cc1ncccc1-c1nc([C@@H]2CC23CCN(S(N)(=O)=O)CC3)no1 [Example E2] = 5.30 to 6.30
Cc1n[nH]c(C2CC2)c1-c1nc([C@@H]2C(F)(F)C23CCN(S(N)(=O)=O)CC3)no1 = > 7.00
Cc1c(-c2nc([C@@H]3C(F)(F)C34CCN(S(N)(=O)=O)CC4)no2)c(C(F)(F)F)nn1C1CC1 = 6.30 to 7.00

Note: attention shifts to another entry.
Input line: Report pEC50 for COc1ccc(Cl)cc1-c1noc(C2CC23CCN(S(=O)(=O)c2cccc4nonc24)CC3)n1 (racemic) please.
Output line: 5.30 to 6.30
